Value source: patent US11485736B2

Target: USP1/UAF1 (Homo sapiens (Human))
Sequence (O94782 whole entry): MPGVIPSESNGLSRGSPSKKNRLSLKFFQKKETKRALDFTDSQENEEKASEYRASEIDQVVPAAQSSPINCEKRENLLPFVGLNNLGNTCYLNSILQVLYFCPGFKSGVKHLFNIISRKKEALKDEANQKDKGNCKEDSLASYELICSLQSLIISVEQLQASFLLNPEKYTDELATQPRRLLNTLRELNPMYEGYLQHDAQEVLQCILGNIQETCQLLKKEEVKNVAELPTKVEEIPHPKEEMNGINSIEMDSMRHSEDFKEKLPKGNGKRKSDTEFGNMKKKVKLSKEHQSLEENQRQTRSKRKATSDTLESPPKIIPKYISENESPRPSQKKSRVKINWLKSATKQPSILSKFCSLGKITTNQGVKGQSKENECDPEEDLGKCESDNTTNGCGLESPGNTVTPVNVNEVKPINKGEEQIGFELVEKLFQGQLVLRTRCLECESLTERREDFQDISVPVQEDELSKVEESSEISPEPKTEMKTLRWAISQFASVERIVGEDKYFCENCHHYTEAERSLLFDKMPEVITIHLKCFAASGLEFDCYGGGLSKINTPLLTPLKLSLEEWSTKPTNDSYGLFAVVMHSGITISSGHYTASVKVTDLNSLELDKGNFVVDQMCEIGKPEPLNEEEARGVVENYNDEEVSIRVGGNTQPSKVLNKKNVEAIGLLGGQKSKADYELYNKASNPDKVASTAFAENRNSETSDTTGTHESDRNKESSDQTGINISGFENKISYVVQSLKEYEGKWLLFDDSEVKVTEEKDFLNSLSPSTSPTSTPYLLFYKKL
Sequence (Q8TAF3 whole entry partner): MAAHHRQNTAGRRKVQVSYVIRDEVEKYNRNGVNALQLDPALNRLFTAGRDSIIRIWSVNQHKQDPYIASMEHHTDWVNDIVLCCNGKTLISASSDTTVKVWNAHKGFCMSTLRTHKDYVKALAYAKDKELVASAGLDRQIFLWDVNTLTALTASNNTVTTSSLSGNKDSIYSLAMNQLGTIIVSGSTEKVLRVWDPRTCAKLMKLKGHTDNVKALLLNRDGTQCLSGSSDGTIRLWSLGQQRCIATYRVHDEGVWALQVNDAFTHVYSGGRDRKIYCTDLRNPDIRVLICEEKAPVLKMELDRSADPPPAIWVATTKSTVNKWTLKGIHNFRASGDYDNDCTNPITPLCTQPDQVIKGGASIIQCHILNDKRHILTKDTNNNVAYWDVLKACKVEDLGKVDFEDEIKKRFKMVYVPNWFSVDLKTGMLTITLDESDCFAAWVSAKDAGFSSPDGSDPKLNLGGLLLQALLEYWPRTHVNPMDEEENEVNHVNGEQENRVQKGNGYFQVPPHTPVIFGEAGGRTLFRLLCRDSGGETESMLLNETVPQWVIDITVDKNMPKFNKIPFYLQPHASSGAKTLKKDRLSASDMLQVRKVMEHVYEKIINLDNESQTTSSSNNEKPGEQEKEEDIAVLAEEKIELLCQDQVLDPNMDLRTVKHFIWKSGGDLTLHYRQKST
Test: Deubiquitination assay for USP1/UAF1 activity (ubiquitin-rhodamine 110)
Type: biochemical
Settings: Table 3; 0.05 nM USP1/UAF1, 150 nM ubiquitin-rhodamine
pIC50: −log10 of the molar value.
Measured pIC50 by item

Below are worked cases with known answers.
[
  {
    "molecule": "COCCOc1ncnc(C2CC2)c1-c1ncc2cnn(Cc3ccc(-c4nc(C(F)(F)F)cn4C)cc3)c2n1 [drawing 787]",
    "value.type": "pIC50",
    "value.observed": "< 6.70"
  },
  {
    "molecule": "Cn1cc(C(F)(F)F)nc1-c1ccc(Cn2ncc3cnc(-c4c(C#N)ncnc4C4CC4)nc32)cc1",
    "value.type": "pIC50",
    "value.observed": "7.00 to 8.00"
  },
  {
    "molecule": "COc1ncnc(C2CC2)c1-c1ncc2cnn(Cc3ccc(-n4nc(C#N)cc4C)cc3)c2n1",
    "value.type": "pIC50",
    "value.observed": "7.00 to 8.00"
  }
]

Now look at this one.
Qu. Please state recorded pIC50 (tested on USP1/UAF1 (Homo sapiens (Human))) of CCn1cc(C(F)(F)F)nc1-c1ccc(Cn2ncc3cnc(-c4c(OC(F)F)ncnc4C4CC4)nc32)cc1 [drawing 731]
Ans. > 8.00

----------
Experiment: Liver microsomal stability, rat liver microsomes
Assay type: in vitro ADME
Settings: 1 μM compound, NADPH, read-out: t1/2 (min) in RLM
value.type: half-life at 1 μM

Example results:
[
  {
    "compound": "COc1ncnc(C2CC2)c1-c1ncc2cnn(Cc3ccc(-c4nc(C(F)(F)F)cn4CC(C)F)cc3)c2n1 (stereo not shown)",
    "value.type": "half-life at 1 μM",
    "value.observed": "< 25 min"
  },
  {
    "compound": "COc1ncnc(C2CC2)c1-c1ncc2cnn(Cc3ccc(-c4nc(C(F)(F)F)cn4CC(F)F)cc3)c2n1",
    "value.type": "half-life at 1 μM",
    "value.observed": "> 25 min"
  }
]

Qu. # lookup: half-life at 1 μM of CCn1cc(C(F)(F)F)nc1-c1ccc([C@@H](C)n2ncc3cnc(-c4c(OC)ncnc4C4CC4)nc32)cc1 (single isomer, unassigned)
Ans. < 25 min

Qu. Repeat with `COc1ncnc(C2CC2)c1-c1ncc2c(OC)nn([C@@H](C)c3ccc(-c4nc(C(F)(F)F)cn4CCF)cc3)c2n1`
Ans. > 25 min

Qu. Likewise for `COc1ncnc(C2CC2)c1-c1ncc2ccn(Cc3ccc(-c4nc(C(F)(F)F)cn4C)cc3)c2n1` ?
Ans. < 25 min

Qu. Lookup `CCOc1cc(C(F)(F)F)nn1-c1ccc(Cn2ncc3cnc(-c4c(OC)ncnc4C4CC4)nc32)cc1`
Ans. > 25 min

Qu. What about this compound? `COc1ncnc(C2CC2)c1-c1ncc2nnn(Cc3ccc(-c4nc(C(F)(F)F)cn4C)cc3)c2n1`
Ans. < 25 min

----------
Test: Liver microsomal stability, human liver microsomes
Format: in vitro ADME
Conditions: 1 μM compound, NADPH, read-out: t1/2 (min) in HLM
value.type: half-life at 1 μM

Record excerpt, results attached:
[
  {
    "line.notation": "CCn1cc(C(F)(F)F)nc1-c1ccc(Cn2nc(OC)c3cnc(-c4c(OC)ncnc4C4CC4)nc32)cc1F",
    "half-life at 1 μM": "> 25 min"
  },
  {
    "line.notation": "COc1ncnc(C2CC2)c1-c1ncc2cnn(Cc3ccc(-n4nc(C(F)(F)F)cc4N(C)C)cc3)c2n1",
    "half-life at 1 μM": "< 25 min"
  },
  {
    "line.notation": "CCOc1ncnc(C2CC2)c1-c1ncc2cnn(Cc3ccc(-c4nc(C(F)(F)F)cn4C)cc3)c2n1",
    "half-life at 1 μM": "< 25 min"
  }
]

Here is the next item to consider.
Qu. Reported half-life at 1 μM, compound `CCn1cc(C(F)(F)F)nc1-c1ccc(Cn2nc(SC)c3cnc(-c4c(OC)ncnc4C4CC4)nc32)cc1` : ____
Ans. < 25 min
